Source: PubChem BioAssay (NCI)

- System: KM12 colon
- procedureText: NCI-60 one-dose screen, 48 h
- measurementConditions: 10 µM unless noted
This is part of a sample that, as a whole, favours compounds with a hit. Of some 83,000 tested, about 20% had one in any assay. Active and inactive are the calls of the source. How the source made its calls: active means growth percent below 10; inactive means the rest.
Valid outcomes are listed here; reply with one: 1 for active, -1 for inactive

# molecule, testSystem, qualitativeLabel
rows = [
    ("NS(=O)(=O)N(c1cc(C(F)(F)F)cc(C(F)(F)F)c1)C1CCN(Cc2ccc(F)cc2)CC1", "KM12 colon", -1),
    ("O=C(Nc1nc(-c2ccccc2)cc(-c2ccc(Cl)cc2)n1)c1ccncc1", "KM12 colon", -1),
    ("Cc1cc(Nc2nc(N3CCN(C)CC3)nc3ccccc23)n[nH]1", "KM12 colon", -1),
    ("C=C1CCC2C3(C)COC(c4ccccc4Br)OC3CCC2(C)C1C/C=C1/C(=O)OCC1OC(C)=O (stereo unspecified)", "KM12 colon", 1),
    ("O=C(Cc1ccccc1)c1ccc(Cl)cc1", "KM12 colon", -1),
]

Let us examine a further case.
q: What call does the record list for `CCOC(=S)SCc1ccc(Cl)cc1` ?
a: -1
